Molecular target: human PAH with the R408W mutation (A375 R408W cells) (Homo sapiens, UniProt P00439, R408W)
Construct: expressed in transfected cells
Experiment: Cell Based Phenylalanine Flux Assay
Details: A375 R408W cells; 24 hrs with compound, then 20 μM sepiapterin and 800 μM 13C9,15N-Phenylalanine for 4 hours; 13C-Tyrosine by LC-MS; average where tested multiple times
Outcome measure: AC50

Illustrative cases are given below, each with its answer.
// query Give the measured AC50 of `CC(F)(F)c1ncoc1C(=O)N1CCc2[nH]cnc2[C@@H]1c1nc2cc(F)ccc2o1` .
// result 1000 to 5000 nM

// query Give the measured AC50 of `COCc1ccc2c(C(=O)N3CCc4[nH]cnc4[C@H]3c3nc4c(F)cccc4o3)cnn2c1` .
// result 500 to 1000 nM

Continue with the compound presented below.
// query Give the measured AC50 of `Cc1ccc2oc([C@@H]3c4nc[nH]c4CCN3C(=O)c3nnc(-c4cc[nH]n4)o3)nc2c1` .
// result 500 to 1000 nM

---

Biological target: human PAH with the R408W mutation (A375 R408W cells) (Homo sapiens, UniProt P00439, R408W)
Construct: expressed in transfected cells
Assay: Cell Based Phenylalanine Flux Assay
Settings: A375 R408W cells; 24 hrs with compound, then 20 μM sepiapterin and 800 μM 13C9,15N-Phenylalanine for 4 hours; 13C-Tyrosine by LC-MS; average where tested multiple times
Outcome measure: AC50

// query Give the measured AC50 of `Cc1ccc2nc([C@@H]3c4nc[nH]c4CCN3C(=O)c3ocnc3C(F)(F)F)oc2c1` .
// result ≤ 500 nM

// query Give the measured AC50 of `COc1ccc2oc([C@H]3c4nc[nH]c4CCN3C(=O)c3nnc(-c4ccccn4)o3)nc2c1` .
// result 1000 to 5000 nM

// query Give the measured AC50 of `COc1cc(F)cc2nc([C@@H]3c4nc[nH]c4CCN3C(=O)c3ocnc3C(F)F)oc12` .
// result ≤ 500 nM

// query Give the measured AC50 of `O=C(c1c(C(F)(F)F)nn2ccccc12)N1CCc2[nH]cnc2[C@H]1c1nc2cc(F)ccc2o1` .
// result ≤ 500 nM

---
// query Give the measured AC50 of `O=C(c1ocnc1C(F)F)N1CCc2[nH]cnc2[C@@H]1c1nc2cc(F)cc(F)c2o1` .
// result 500 to 1000 nM

// query Give the measured AC50 of `O=C(c1nnc(-c2c(F)cccc2F)o1)N1CCc2[nH]cnc2[C@@H]1c1nc2cc(F)ccc2o1` .
// result 500 to 1000 nM

// query Give the measured AC50 of `COCc1ccc2c(C(=O)N3CCc4[nH]cnc4[C@@H]3c3nc4cc(C)ccc4o3)cnn2c1` .
// result ≥ 5000 nM

// query Give the measured AC50 of `CNC(C)(C)c1nc(C(F)F)c(C(=O)N2CCc3[nH]cnc3[C@@H]2c2nc3cc(F)ccc3o2)o1` .
// result 1000 to 5000 nM

// query Give the measured AC50 of `O=C(c1ocnc1C(F)F)N1CCc2[nH]cnc2[C@H]1c1nc2cc(F)cc(F)c2o1` .
// result ≤ 500 nM

// query Give the measured AC50 of `O=C(c1ocnc1C(F)F)N1CCc2[nH]cnc2[C@H]1c1nc2c(Cl)cccc2o1` .
// result ≤ 500 nM

// query Give the measured AC50 of `O=C(c1ocnc1C(F)F)N1CCc2[nH]cnc2[C@@H]1c1nc2cccc(C(F)(F)F)c2o1` .
// result ≤ 500 nM

// query Give the measured AC50 of `CC(C)(O)c1nc(C(F)F)c(C(=O)N2CCc3[nH]cnc3[C@@H]2c2nc3cccc(C(F)(F)F)c3o2)o1` .
// result 1000 to 5000 nM

// query Give the measured AC50 of `O=C(c1oc(-c2ccncc2)nc1C(F)F)N1CCc2[nH]cnc2[C@H]1c1nc2cc(F)ccc2o1` .
// result ≤ 500 nM

// query Give the measured AC50 of `O=C(c1oc(-c2ccccn2)nc1C(F)F)N1CCc2[nH]cnc2[C@@H]1c1nc2ccccc2o1` .
// result 500 to 1000 nM

---

Target: human PAH with the R408W mutation (A375 R408W cells) (Homo sapiens, UniProt P00439, R408W)
Construct: expressed in transfected cells
Experiment: Cell Based Phenylalanine Flux Assay
Conditions: A375 cells expressing R408W PAH; 24 hrs with compound, then 20 μM sepiapterin and 800 μM 13C9,15N-Phenylalanine for 4 hours; 13C-Tyrosine by LC-MS; average where tested multiple times
This listing pairs molecules with measured AC50.

Illustrative cases are given below, each with its answer.
// query Give the measured AC50 of Cn1nccc1C(=O)N1CCc2[nH]cnc2C1c1nc2cccc(F)c2o1 (stereo not drawn) .
// result 1000 to 5000 nM

// query Give the measured AC50 of Cc1nc(C(=O)N2CCc3[nH]cnc3C2c2nc3ccccc3o2)n(C)n1 (stereo not drawn) .
// result 1000 to 5000 nM

Continue with the molecule presented below.
// query Give the measured AC50 of Cc1nc(C(C)(C)N(C)C)oc1C(=O)N1CCc2[nH]cnc2C1c1nc2cc(F)ccc2o1 (stereo not drawn) .
// result 1000 to 5000 nM

---

Target: human PAH with the R408W mutation (A375 R408W cells) (Homo sapiens, UniProt P00439, R408W)
Construct: expressed in transfected cells
Sequence (P00439 1-452 R408W): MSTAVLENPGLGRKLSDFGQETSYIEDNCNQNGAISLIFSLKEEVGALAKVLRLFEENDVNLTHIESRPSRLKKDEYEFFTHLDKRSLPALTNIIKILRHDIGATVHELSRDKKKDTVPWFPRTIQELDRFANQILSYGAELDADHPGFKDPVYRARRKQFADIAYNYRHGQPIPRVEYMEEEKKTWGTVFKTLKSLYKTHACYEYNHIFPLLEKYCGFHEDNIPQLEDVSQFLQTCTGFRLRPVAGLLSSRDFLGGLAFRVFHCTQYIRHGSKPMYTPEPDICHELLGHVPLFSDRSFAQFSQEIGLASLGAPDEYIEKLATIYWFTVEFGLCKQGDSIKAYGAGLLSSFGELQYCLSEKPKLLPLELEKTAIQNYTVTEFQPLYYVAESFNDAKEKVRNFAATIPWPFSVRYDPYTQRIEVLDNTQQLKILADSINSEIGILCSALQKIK
Assay: Cell Based Phenylalanine Flux Assay
Conditions: A375 R408W cells; 24 hrs with compound, then 20 μM sepiapterin and 800 μM 13C9,15N-Phenylalanine for 4 hours; 13C-Tyrosine by LC-MS; average where tested multiple times
Outcome measure: AC50

// query Give the measured AC50 of `O=C(c1ocnc1C(F)F)N1CCc2[nH]cnc2[C@H]1c1nc2c(F)c(F)ccc2o1` .
// result ≤ 500 nM

---
// query Give the measured AC50 of `Cc1ccc2nc([C@H]3c4nc[nH]c4CCN3C(=O)c3nnc(-c4ccccn4)o3)oc2c1` .
// result 1000 to 5000 nM

// query Give the measured AC50 of `O=C(c1cnco1)N1CCc2[nH]cnc2[C@@H]1c1nc2cc(F)cc(F)c2o1` .
// result 1000 to 5000 nM

// query Give the measured AC50 of `COc1cccc2nc([C@H]3c4nc[nH]c4CCN3C(=O)c3ccnn3C)oc12` .
// result 1000 to 5000 nM

---

Molecular target: human PAH with the R408W mutation (A375 R408W cells) (Homo sapiens, UniProt P00439, R408W)
Construct: expressed in transfected cells
Test: Cell Based Phenylalanine Flux Assay
Conditions: A375 cells expressing R408W PAH; 24 hrs with compound, then 20 μM sepiapterin and 800 μM 13C9,15N-Phenylalanine for 4 hours; 13C-Tyrosine by LC-MS; average where tested multiple times
Outcome measure: AC50

// query Give the measured AC50 of O=C(c1cnn2cc(N3CCNCC3)ccc12)N1CCc2[nH]cnc2[C@H]1c1nc2cc(F)ccc2o1 (single isomer, unassigned) .
// result ≥ 5 µM

---
// query Give the measured AC50 of O=C(c1cnn2cc(N3CCC(O)CC3)ccc12)N1CCc2[nH]cnc2C1c1nc2cc(F)ccc2o1 (centres unmarked) .
// result 1 to 5 µM

---

Target: human PAH with the R408W mutation (A375 R408W cells) (Homo sapiens, UniProt P00439, R408W)
Construct: expressed in transfected cells
Test: Cell Based Phenylalanine Flux Assay
Details: A375 cells expressing R408W PAH; 24 hrs with compound, then 20 μM sepiapterin and 800 μM 13C9,15N-Phenylalanine for 4 hours; 13C-Tyrosine by LC-MS; average where tested multiple times
Outcome measure: AC50

Illustrative cases are given below, each with its answer.
// query Give the measured AC50 of COc1cccc2nc(C3c4nc[nH]c4CCN3C(=O)c3ccnn3-c3ccccn3)oc12 (centres unmarked) .
// result 1 to 5 µM

// query Give the measured AC50 of O=C(c1cnn2cc(CCN3CC(F)C3)ccc12)N1CCc2[nH]cnc2C1c1nc2cc(F)ccc2o1 (centres unmarked) .
// result 1 to 5 µM

// query Give the measured AC50 of O=C(c1cnn2cc(CCN3CCOCC3)ccc12)N1CCc2[nH]cnc2C1c1nc2cc(F)ccc2o1 (centres unmarked) .
// result ≥ 5 µM

---
// query Give the measured AC50 of O=C(c1cnn2cc(N3CCOCC3)ccc12)N1CCc2[nH]cnc2C1c1nc2cc(F)ccc2o1 (centres unmarked) .
// result 1 to 5 µM

Data origin: patent US20250171437A1
